test system: tetrabenazine-induced sedation in mice; assay: Antitetrabenazine test: prevention of tetrabenazine-induced sedation and depression (exploratory activity and ptosis); format: in vivo, mice (Carworth CF1 S female); conditions: Mus musculus, po, 1 h, tetrabenazine 32 mg/kg i.p. 30 min later, read 1 h after compound, read-out: Antitetrabenazine ED 50, Ptosis (dose which blocked ptosis in 50% of the mice)
parameterMeasured: log10 ED50 (log10 of the value in mg/kg)
Field: value | Transform: log10 | Quantity: ED50 | Unit: mg/kg

{"compound": "CCCN(C(N)=NO)c1ccccc1 [Example 17, 1-phenyl-1-n-propylhydroxyguanidine]", "log10 ED50": 1.30}
{"compound": "CN(Cc1ccc(Cl)c(Cl)c1)C(N)=NO", "log10 ED50": 0.68}
{"compound": "CN(Cc1cccc([N+](=O)[O-])c1)C(N)=NO [Example 21, 1-m-nitrobenzyl-1-methylhydroxyguanidine]", "log10 ED50": 1.82}
{"compound": "CN(C(N)=NO)c1cccc(Cl)c1", "log10 ED50": -0.15}
{"compound": "CN(Cc1ccc(F)cc1)C(N)=NO", "log10 ED50": 0.91}

Looking up Cc1ccc(N(C)C(N)=NO)cc1C [Example 23, 1-(3,4-xylyl)-1-methylhydroxyguanidine] , I see its log10 ED50 listed as 0.69

Looking up CN(Cc1ccc([N+](=O)[O-])cc1)C(N)=NO [Example 8, 1-p-nitrobenzyl-1-methylhydroxyguanidine] , I see its log10 ED50 listed as 1.67

Looking up CCN(C(N)=NO)c1ccccc1 [Example 12, 1-phenyl-1-ethylhydroxyguanidine] , I see its log10 ED50 listed as 0.48

###

test system: tetrabenazine-induced sedation in mice; assay: Antitetrabenazine test: prevention of tetrabenazine-induced sedation and depression (exploratory activity and ptosis); type: in vivo, mice (Carworth CF1 S female); details: Mus musculus, po, 1 h, tested as hydroxyguanidine HCl salt, tetrabenazine 32 mg/kg i.p., read-out: Antitetrabenazine ED 50, Exploratory
parameterMeasured: ED50

Examples with their reported ED50 follow.
{"compound": "CN(C(N)=NO)c1ccccc1 [Example 1, 1-phenyl-1-methylhydroxyguanidine]", "value": "9 mg/kg"}
{"compound": "CN(C(N)=NO)C1CCCC1 [Example 25, 1-cyclopentyl-1-methylhydroxyguanidine]", "value": "> 81 mg/kg"}
{"compound": "NC(=NO)NCc1ccccc1 [Example 19, 1-benzylhydroxyguanidine]", "value": "> 81 mg/kg"}

Looking up CN(Cc1ccccc1)C(N)=NO [Example 2, 1-benzyl-1-methylhydroxyguanidine] , I see its ED50 listed as > 81 mg/kg

###

test system: tetrabenazine-induced sedation in mice; experiment: Antitetrabenazine test: prevention of tetrabenazine-induced sedation and depression (exploratory activity and ptosis); format: in vivo, mice (Carworth CF1 S female); settings: Mus musculus, po, 1 h, tetrabenazine 32 mg/kg i.p. 30 min later, read 1 h after compound, read-out: Antitetrabenazine ED 50, Ptosis (dose which blocked ptosis in 50% of the mice)
Reported log10 ED50 values are given for each entry in this list.
Field: value | Transform: log10 | Quantity: ED50 | Unit: mg/kg

{"molecule": "COc1ccc(N(C)C(N)=NO)cc1", "log10 ED50": 1.31}

Looking up CN(Cc1ccc(Br)cc1)C(N)=NO [Example 6, 1-p-bromobenzyl-1-methylhydroxyguanidine] , I see its log10 ED50 listed as 1.24

Looking up `CN(Cc1cccc(Cl)c1)C(N)=NO` , I see its log10 ED50 listed as -0.40

###

Reported ED50 values are given for each entry in this list.
test system: tetrabenazine-induced sedation in mice; experiment: Antitetrabenazine test: prevention of tetrabenazine-induced sedation and depression (exploratory activity and ptosis); format: in vivo, mice (Carworth CF1 S female); details: Mus musculus, po, 1 h, tested as hydroxyguanidine HCl salt, tetrabenazine 32 mg/kg i.p., read-out: Antitetrabenazine ED 50, Ptosis

Examples with their reported ED50 follow.
{"compound": "CN(C(N)=NO)C1CCCC1 [Example 25, 1-cyclopentyl-1-methylhydroxyguanidine]", "value": "3 mg/kg"}
{"compound": "CN(Cc1ccccc1)C(N)=NO [Example 2, 1-benzyl-1-methylhydroxyguanidine]", "value": "0.43 mg/kg"}
{"compound": "NC(=NO)NCc1ccccc1 [Example 19, 1-benzylhydroxyguanidine]", "value": "12.5 mg/kg"}

As a next step, examine the compound that follows.
Looking up CN(C(N)=NO)c1ccccc1 [Example 1, 1-phenyl-1-methylhydroxyguanidine] , I see its ED50 listed as 1.1 mg/kg

###

tested on: tetrabenazine-induced sedation in mice; experiment: Antitetrabenazine test: prevention of tetrabenazine-induced sedation and depression (exploratory activity and ptosis); type: in vivo, mice (Carworth CF1 S female); details: Mus musculus, po, 1 h, tetrabenazine 32 mg/kg i.p. 30 min later, read 1 h after compound, read-out: Antitetrabenazine ED 50, Ptosis (dose which blocked ptosis in 50% of the mice)
Reported log10 of ED50 values are given for each entry in this list.
Field: value | Transform: log10 | Quantity: ED50 | Unit: mg/kg

Examples with their reported log10 of ED50 follow.
{"molecule": "CN(C(N)=NO)C1CCCCC1 [Example 18, 1-cyclohexyl-1-methylhydroxyguanidine]", "log10 of ED50": 0.95}
{"molecule": "CN(C(N)=NO)c1ccc(Cl)cc1", "log10 of ED50": -0.09}
{"molecule": "CNC(=NO)Nc1ccccc1 [Example 26, 1-Phenyl-3-methyl-2-hydroxyguanidine]", "log10 of ED50": 1.09}
{"molecule": "CN(C(N)=NO)c1ccccc1 [Example 1, 1-phenyl-1-methylhydroxyguanidine]", "log10 of ED50": 0.04}

As a next step, examine the molecule that follows.
Looking up `COc1ccc(CN(C)C(N)=NO)cc1` , I see its log10 of ED50 listed as 1.77

###

Reported log10 of ED50 values are given for each entry in this list.
system: tetrabenazine-induced sedation in mice; assay: Antitetrabenazine test: prevention of tetrabenazine-induced sedation and depression (exploratory activity and ptosis); format: in vivo, mice (Carworth CF1 S female); conditions: Mus musculus, po, 1 h, tetrabenazine 32 mg/kg i.p. 30 min later, read 1 h after compound, read-out: Antitetrabenazine ED 50, Ptosis (dose which blocked ptosis in 50% of the mice)
Field: value | Transform: log10 | Quantity: ED50 | Unit: mg/kg

{"compound": "CCN(Cc1ccccc1)C(N)=NO [Example 3, 1-benzyl-1-ethylhydroxyguanidine]", "measuredTarget": "tetrabenazine-induced sedation in mice", "value": -0.41}
{"compound": "Cc1ccc(N(C)C(N)=NO)cc1 [Example 13, 1-p-tolyl-1-methylhydroxyguanidine]", "measuredTarget": "tetrabenazine-induced sedation in mice", "value": -0.06}
{"compound": "CN(Cc1ccccc1)C(N)=NO [Example 2, 1-benzyl-1-methylhydroxyguanidine]", "measuredTarget": "tetrabenazine-induced sedation in mice", "value": -0.74}
{"compound": "CN(Cc1ccc(Cl)cc1)C(N)=NO", "measuredTarget": "tetrabenazine-induced sedation in mice", "value": 1.03}
{"compound": "Cc1cccc(N(C)C(N)=NO)c1 [Example 24, 1-m-tolyl-1-methylhydroxyguanidine]", "measuredTarget": "tetrabenazine-induced sedation in mice", "value": -0.40}

As a next step, examine the compound that follows.
Looking up `Cc1ccc(CN(C)C(N)=NO)cc1` , I see its log10 of ED50 listed as 1.36
